These entries and their values trace back to the supplement of paper PMC6757056.

B1: library; a variant is named by its letters at N, in order (parent)
chain: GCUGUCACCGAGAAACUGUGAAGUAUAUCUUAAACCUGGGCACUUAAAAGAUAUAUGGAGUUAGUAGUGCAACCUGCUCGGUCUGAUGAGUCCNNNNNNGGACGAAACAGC

Variants of: B1
assay-name: normalized RNA/DNA level without ligand (relative to sTRSVctl = 100) (log10 (% of sTRSVctl)); HEK293T; ligand: cyclic di-GMP (c-di-GMP-II aptamer); higher = less ribozyme self-cleavage, higher mRNA level
measurement-setup: reporter: mCherry (pCS4076), ligand present: no
Listing: normalized RNA/DNA level without ligand (log10) of selected variants
property: normalized RNA/DNA level without ligand (log10)

- UAUAAU: 1.66
- GUGGCC: 1.86
- UGAGCA: 1.84
- CGCGUG: 1.62
- GAAGGC: 1.62
- GGGUAU: 1.75
- ACGUAG: 1.55
- UGGCAG: 1.85
- CUGAGU: 1.7
- UCCGUG: 1.73
- GGCCCC: 1.92
- CGGUCC: 1.85
- UCAUGA: 1.57
- GGCGCC: 1.79
- AGCAGU: 1.69
- GCGUGU: 1.5
- AAUCAU: 1.64
- UGUCGA: 1.76
- AUAUCG: 1.56
- ACAUCG: 1.51
- GUAAAA: 1.57
- CCAGAA: 1.34
